# ASSAY TARGET: TDO2 (Homo sapiens)
# Construct: decreased levels of NFK in SW48 cells (high TDO expressing cells)
# EXPERIMENT SUMMARY: TDO2 cell assay (NFK GreenScreen, SW48 cells)
# Format: cell-based
# TEST CONTEXT: SW48 cells (high TDO expressing), 200 uM tryptophan, 24 hours; Table 3; read-out: TDO2 Cell Fluor EC50
MEASUREMENT LABEL: pEC50
pEC50 is defined as minus the log10 of a concentration measured in mol/L.

Query block: Need pEC50 of CC1(C)CCCC(C2c3ccccc3-c3cncn32)C1O (single isomer, unassigned) [Example 24e] , thanks.
Result block: 6.89

Query block: // next record OC1CC(CF)(CF)C1C1c2ccccc2-c2cncn21 (single isomer, unassigned) [Example 150b]
Result block: 5.68

Query block: Try CN(C)C(=O)c1ccc2c(c1)CCC(C1c3ccccc3-c3cncn31)C2O (single isomer, unassigned) [Example 98d] next.
Result block: 5.02

Query block: Now the compound OC1c2cccnc2CCC1C1c2ccccc2-c2cncn21 (single isomer, unassigned) [Example 31e]
Result block: 5.96

Query block: CC1(C)C[C@H](O)[C@@H]1[C@H]1c2ccccc2-c2cncn21 [Example 22a] ?
Result block: 7.22

Query block: Now consider OC1c2ncccc2CCC1C1c2ccccc2-c2cncn21 (single isomer, unassigned) [Example 63b] and answer again.
Result block: 4.72

Query block: Moving on to the next compound: Cn1ncc2c1CCC(C1c3ccccc3-c3cncn31)C2O (single isomer, unassigned) [Example 93e]
Result block: 5.37

Query block: Now the compound O[C@@H]1CCC(F)(F)C[C@@H]1[C@@H]1c2ccccc2-c2cncn21 [Example 18e]
Result block: 5.12

----------
# ASSAY TARGET: TDO2 (Homo sapiens, UniProt P48775)
# Construct: decreased levels of NFK in SW48 cells (high TDO expressing cells)
# Sequence (P48775 whole entry): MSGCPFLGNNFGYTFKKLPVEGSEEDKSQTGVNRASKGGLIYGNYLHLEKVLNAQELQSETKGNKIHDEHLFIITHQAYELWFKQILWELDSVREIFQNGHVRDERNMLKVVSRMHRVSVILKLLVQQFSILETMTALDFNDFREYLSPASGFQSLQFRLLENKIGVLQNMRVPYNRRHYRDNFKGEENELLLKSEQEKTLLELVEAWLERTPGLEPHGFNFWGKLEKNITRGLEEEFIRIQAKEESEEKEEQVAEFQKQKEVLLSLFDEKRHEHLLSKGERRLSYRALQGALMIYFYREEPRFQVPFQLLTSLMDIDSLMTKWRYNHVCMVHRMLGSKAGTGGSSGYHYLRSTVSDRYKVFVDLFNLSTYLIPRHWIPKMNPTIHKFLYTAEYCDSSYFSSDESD
# EXPERIMENT SUMMARY: TDO2 cell assay (NFK GreenScreen, SW48 cells)
# Type: cell-based
# TEST CONTEXT: SW48 cells (high TDO expressing), 200 uM tryptophan, 24 hours; Table 3; read-out: TDO2 Cell Fluor EC50
For each entry below, report its pEC50 value.
Worth noting: pEC50 values are minus log10 of concentrations stated in mol/L.

Query block: I'd like to know its pEC50. The molecule in question is CS(=O)(=O)N1CCC2(CC1)CC(C1c3ccccc3-c3cncn31)C2O (single isomer, unassigned) [Example 179g]
Result block: 6.10

Query block: Next molecule: O[C@@H]1c2nccnc2CC[C@H]1[C@H]1c2ccccc2-c2cncn21 (single isomer, unassigned) [Example 123b]
Result block: 6.64

----------
# ASSAY TARGET: TDO2 (Homo sapiens)
# Construct: decreased levels of NFK in SW48 cells (high TDO expressing cells)
# EXPERIMENT SUMMARY: TDO2 cell assay (NFK GreenScreen, SW48 cells)
# Format: cell-based
# TEST CONTEXT: SW48 cells (high TDO expressing), 200 uM tryptophan, 24 hours; Table 3; read-out: TDO2 Cell Fluor EC50
Give measured pEC50 for each item. Keep answers brief.
Units for pEC50: none; it is -log10 of a concentration expressed in mol/L.

Query block: For the molecule shown here, CC1(C)CCC(C2c3ccccc3-c3cncn32)C1O (single isomer, unassigned) [Example 23b] , give the reported pEC50.
Result block: 7.07

Query block: Next up: CC1(C)OCC(C2c3ccccc3-c3cncn32)C1O (single isomer, unassigned) [Example 85h]
Result block: 6.18

Query block: Subsequent entry: O[C@@H]1c2ccncc2CC[C@H]1[C@@H]1c2ccccc2-c2cncn21 (single isomer, unassigned) [Example 08f]
Result block: 4.92

Query block: And for NC(=O)c1ccc2c(n1)CCC(C1c3ccccc3-c3cncn31)C2O (single isomer, unassigned) [Example 104e] ?
Result block: 5.47

Query block: How about CS(=O)(=O)N1CC2(CC(C3c4ccccc4-c4cncn43)C2O)C1 (stereo not drawn) ?
Result block: 6.66

Query block: Same for OC1CCOCC1C1c2c(F)cccc2-c2cncn21 (single isomer, unassigned) [Example 73b]
Result block: 5.66

Query block: Then CC[C@H](O)[C@@H]1c2ccccc2-c2cncn21 [Example 137b] ?
Result block: 5.10

Query block: Input OC1CCCC1C1c2ccccc2-c2cncn21 (single isomer, unassigned) [Example 02f]
Result block: 7.15

----------
# ASSAY TARGET: TDO2 (Homo sapiens)
# Construct: decreased levels of NFK in SW48 cells (high TDO expressing cells)
# EXPERIMENT SUMMARY: TDO2 cell assay (NFK GreenScreen, SW48 cells)
# Assay type: cell-based
# TEST CONTEXT: SW48 cells (high TDO expressing); TDO selectivity table; read-out: TDO2 cell Fluor EC50
Under this convention, yes denotes EC50 strictly below 50 nM and no denotes EC50 at or above 50 nM.

Query block: Strictly below 50 nM in EC50? C[C@H](O)[C@H]1c2ccccc2-c2cncn21 [Example 42c]
Result block: no

Query block: Cool, now OC1C(C2c3ccc(F)cc3-c3cncn32)CC12CCOCC2 (single isomer, unassigned) [Example 109c]
Result block: no

Query block: Now give it for O[C@@H]1CC[C@H]1[C@H]1c2ccccc2-c2cncn21 [Example 01d] too.
Result block: yes

Query block: And then OC1c2cncnc2CCC1C1c2ccccc2-c2cncn21 (single isomer, unassigned) [Example 94c] , what is it?
Result block: no

Query block: Quick one: OC1c2cnncc2CCC1C1c2ccccc2-c2cncn21 (single isomer, unassigned) [Example 112b]
Result block: no

Query block: # repeat for NS(=O)(=O)c1ccc2c(c1)CCC(C1c3ccccc3-c3cncn31)C2O (single isomer, unassigned) [Example 100g]
Result block: no

Query block: Now try CC1(C)C[C@@H](O)[C@@H]1[C@H]1c2ccccc2-c2cncn21 [Example 22b] .
Result block: yes

Query block: Next up: NC(=O)c1ccc2c(c1)C(O)C(C1c3ccccc3-c3cncn31)CC2 (single isomer, unassigned) [Example 122a]
Result block: yes

Query block: Try the compound Cn1cc2c(n1)CCC(C1c3ccccc3-c3cncn31)C2O (single isomer, unassigned) [Example 130d]
Result block: no

----------
# ASSAY TARGET: TDO2 (Homo sapiens, UniProt P48775)
# Construct: decreased levels of NFK in SW48 cells (high TDO expressing cells)
# EXPERIMENT SUMMARY: TDO2 cell assay (NFK GreenScreen, SW48 cells)
# Format: cell-based
# TEST CONTEXT: SW48 cells (high TDO expressing), 200 uM tryptophan, 24 hours; Table 3; read-out: TDO2 Cell Fluor EC50
pEC50: −log10 of the molar value.
Output Fulfilled for pEC50 not less than 6; output Not fulfilled otherwise.

Query block: Test whether the compound CC(C)[C@@H](O)[C@H]1c2ccc(F)cc2-c2cncn21 [Example 135b] records pEC50 of 6 or higher.
Result block: Not fulfilled

Query block: Request: OC1C(C2c3ccc(F)cc3-c3cncn32)CC12CCOCC2 (single isomer, unassigned) [Example 109c]
Result block: Fulfilled

Query block: Lookup OC1COCC1C1c2ccccc2-c2cncn21 (single isomer, unassigned) [Example 26a]
Result block: Not fulfilled

Query block: Same again, this time with CCS(=O)(=O)N1CC[C@H]([C@H]2c3ccccc3-c3cncn32)[C@@H](O)C1 (stereo in doubt) [Example 16d]
Result block: Not fulfilled

Query block: Same lookup for CS(=O)(=O)c1ccc2c(c1)OCC(C1c3ccccc3-c3cncn31)C2O (single isomer, unassigned) [Example 91d] , please.
Result block: Fulfilled

Query block: Let us now turn to OC1c2nccn2CCC1C1c2ccccc2-c2cncn21 (single isomer, unassigned) [Example 88c]
Result block: Not fulfilled

Query block: Here is the next compound: OC1c2cncnc2CCC1C1c2ccccc2-c2cncn21 (single isomer, unassigned) [Example 94g]
Result block: Not fulfilled

Query block: Note, next up: Cn1ncc2c1CCC(C1c3ccccc3-c3cncn31)C2O (single isomer, unassigned) [Example 93b]
Result block: Not fulfilled

Query block: How about this compound: O[C@H](C1CCOCC1)[C@@H]1c2ccccc2-c2cncn21 [Example 138a]
Result block: Not fulfilled

Query block: And for O[C@@H]1COCC[C@H]1[C@@H]1c2c(F)cccc2-c2cncn21 (single isomer, unassigned) [Example 120c] ?
Result block: Not fulfilled

Query block: And the next one, O[C@H]1c2cccnc2CC[C@H]1[C@H]1c2ccccc2-c2cncn21 [Example 31h] ?
Result block: Fulfilled

Query block: Okay, and OC1c2cnccc2CC1C1c2ccccc2-c2cncn21 (single isomer, unassigned) [Example 71e] ?
Result block: Not fulfilled

Query block: Also NS(=O)(=O)c1ccc2c(c1)C(O)C(C1c3ccccc3-c3cncn31)CC2 (single isomer, unassigned) [Example 105a] , if possible.
Result block: Not fulfilled

Query block: And then OC1c2cccn2CC[C@H]1C1c2ccccc2-c2cncn21 (stereo in doubt) [Example 136f] , what is it?
Result block: Fulfilled
